Target: JAK1 JH1 catalytic (human)
Test: KINOMEscan competition binding
Conditions: compound 10.0 µM
Attribute Measured: kinase still bound, per cent of control (%)
# value in %; strip the unit string

COc1cc(N2CCN(C)CC2)ccc1Nc1ncc2c(n1)N(C)c1ccccc1N(C)C2=O ... 53
COc1cc(N2CCC(O)CC2)ccc1Nc1ncc2c(n1)N1CCc3cccc(c31)C(=O)N2C ... 100
COc1cc(N2CCN(C)CC2)ccc1Nc1ncc2c(n1)N(C)c1sccc1C(=O)N2C ... 100

Short answer for `CN1C(=O)c2ccccc2N(C)c2nc(Nc3ccc(N4CCC(O)CC4)cc3)ncc21` : kinase still bound, per cent of control was 30

Short answer for `COc1cc(N2CCN(C)CC2)ccc1Nc1ncc2c(n1)Nc1ccccc1NC2=O` : kinase still bound, per cent of control was 50

###

Molecular target: KIT (human) (UniProt P10721)
Sequence (P10721 whole entry, looked up): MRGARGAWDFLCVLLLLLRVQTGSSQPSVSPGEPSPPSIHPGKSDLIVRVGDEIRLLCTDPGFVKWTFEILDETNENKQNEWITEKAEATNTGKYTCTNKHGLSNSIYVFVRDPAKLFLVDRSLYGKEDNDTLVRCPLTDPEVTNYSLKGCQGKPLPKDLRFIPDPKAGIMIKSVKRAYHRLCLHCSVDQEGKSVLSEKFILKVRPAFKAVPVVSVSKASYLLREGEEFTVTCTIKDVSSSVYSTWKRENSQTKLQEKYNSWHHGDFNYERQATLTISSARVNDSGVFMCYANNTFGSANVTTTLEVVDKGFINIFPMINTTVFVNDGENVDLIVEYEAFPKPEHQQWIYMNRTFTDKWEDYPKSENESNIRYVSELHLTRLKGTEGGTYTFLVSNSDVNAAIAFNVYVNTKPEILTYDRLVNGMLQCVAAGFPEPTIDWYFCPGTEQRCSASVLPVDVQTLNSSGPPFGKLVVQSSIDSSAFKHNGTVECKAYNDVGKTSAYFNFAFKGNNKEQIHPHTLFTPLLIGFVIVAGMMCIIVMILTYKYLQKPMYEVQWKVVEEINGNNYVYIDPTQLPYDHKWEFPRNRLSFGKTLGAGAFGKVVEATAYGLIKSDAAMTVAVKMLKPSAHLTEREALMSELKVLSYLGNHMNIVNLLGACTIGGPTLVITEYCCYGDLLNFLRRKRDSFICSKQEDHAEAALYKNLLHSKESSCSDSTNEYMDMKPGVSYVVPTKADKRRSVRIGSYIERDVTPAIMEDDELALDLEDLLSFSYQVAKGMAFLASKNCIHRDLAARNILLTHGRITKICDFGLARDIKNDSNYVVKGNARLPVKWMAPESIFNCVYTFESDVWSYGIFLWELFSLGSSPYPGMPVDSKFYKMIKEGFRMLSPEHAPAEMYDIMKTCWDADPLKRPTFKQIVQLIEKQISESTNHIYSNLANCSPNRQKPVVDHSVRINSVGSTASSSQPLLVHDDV
Experiment: KINOMEscan competition binding
Settings: compound 10.0 µM
Attribute Measured: kinase still bound, per cent of control (%)
# value in %; strip the unit string

Guide cases for kinase still bound, per cent of control, answers given:
COc1cc(N2CCN(C)CC2)ccc1Nc1ncc2c(n1)N(c1ccccc1)CCC(=O)N2 ... 5.7
CS(=O)(=O)Nc1ccc(-c2cncc(/C=C3\SC(=N)NC3=O)c2)cc1 ... 8.2
CN1C(=O)c2ccccc2N(C)c2nc(Nc3ccc(N4CCC(O)CC4)cc3)ncc21 ... 66
CCN1CCN(Cc2cc(NC(=O)c3cccc4cc(-c5ccc(/C=C6\SC(=O)NC6=O)o5)ccc34)cc(C(F)(F)F)c2)CC1 ... 2.6
COc1cc(N2CCC(O)CC2)ccc1Nc1ncc2c(n1)N1CCc3cccc(c31)C(=O)N2C ... 91

Then this molecule:
Short answer for `CS(=O)(=O)Nc1ccc(-c2cc(/C=C3\SC(=N)NC3=O)c[nH]c2=O)cc1` : kinase still bound, per cent of control was 22

###

Molecular target: STK33 (human) (UniProt Q9BYT3)
Sequence (Q9BYT3 whole entry, looked up): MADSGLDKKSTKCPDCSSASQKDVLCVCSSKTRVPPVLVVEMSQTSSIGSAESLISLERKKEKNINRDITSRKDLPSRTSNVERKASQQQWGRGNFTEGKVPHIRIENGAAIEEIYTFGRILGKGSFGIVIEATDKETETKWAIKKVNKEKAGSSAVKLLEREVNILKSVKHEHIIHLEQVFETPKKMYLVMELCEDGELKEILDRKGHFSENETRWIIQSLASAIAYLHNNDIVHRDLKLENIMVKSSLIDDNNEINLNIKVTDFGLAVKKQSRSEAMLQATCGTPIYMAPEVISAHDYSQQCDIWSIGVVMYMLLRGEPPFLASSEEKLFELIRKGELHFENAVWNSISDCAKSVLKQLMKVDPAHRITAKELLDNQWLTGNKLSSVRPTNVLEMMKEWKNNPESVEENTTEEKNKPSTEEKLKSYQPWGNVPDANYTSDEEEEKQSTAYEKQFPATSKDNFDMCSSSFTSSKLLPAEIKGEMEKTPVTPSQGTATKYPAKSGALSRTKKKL
Assay: KINOMEscan competition binding
Conditions: compound 10.0 µM
Listed below: kinase still bound, per cent of control values for each entry.
# value in %; strip the unit string

Guide cases for kinase still bound, per cent of control, answers given:
COc1cc(N2CCN(C)CC2)ccc1Nc1ncc2c(n1)N(C)c1ccccc1N(C)C2=O ... 58
COc1cc(N2CCN(C)CC2)ccc1Nc1ncc2c(n1)N(C1CCCC1)C(C)CC(=O)N2C (centres undefined) ... 5.4
CCN1C(=O)CCN(C2CCCC2)c2nc(Nc3ccc(N4CCC(O)CC4)cn3)ncc21 ... 23

Then this molecule:
Short answer for COc1cc(N2CCC(N3CCN(C)CC3)CC2)ccc1Nc1ncc2c(n1)N(C1CCCC1)C(C)CC(=O)N2C (centres undefined) : kinase still bound, per cent of control was 9

###

Molecular target: UniProt:P22455
Sequence (P22455 whole entry, looked up): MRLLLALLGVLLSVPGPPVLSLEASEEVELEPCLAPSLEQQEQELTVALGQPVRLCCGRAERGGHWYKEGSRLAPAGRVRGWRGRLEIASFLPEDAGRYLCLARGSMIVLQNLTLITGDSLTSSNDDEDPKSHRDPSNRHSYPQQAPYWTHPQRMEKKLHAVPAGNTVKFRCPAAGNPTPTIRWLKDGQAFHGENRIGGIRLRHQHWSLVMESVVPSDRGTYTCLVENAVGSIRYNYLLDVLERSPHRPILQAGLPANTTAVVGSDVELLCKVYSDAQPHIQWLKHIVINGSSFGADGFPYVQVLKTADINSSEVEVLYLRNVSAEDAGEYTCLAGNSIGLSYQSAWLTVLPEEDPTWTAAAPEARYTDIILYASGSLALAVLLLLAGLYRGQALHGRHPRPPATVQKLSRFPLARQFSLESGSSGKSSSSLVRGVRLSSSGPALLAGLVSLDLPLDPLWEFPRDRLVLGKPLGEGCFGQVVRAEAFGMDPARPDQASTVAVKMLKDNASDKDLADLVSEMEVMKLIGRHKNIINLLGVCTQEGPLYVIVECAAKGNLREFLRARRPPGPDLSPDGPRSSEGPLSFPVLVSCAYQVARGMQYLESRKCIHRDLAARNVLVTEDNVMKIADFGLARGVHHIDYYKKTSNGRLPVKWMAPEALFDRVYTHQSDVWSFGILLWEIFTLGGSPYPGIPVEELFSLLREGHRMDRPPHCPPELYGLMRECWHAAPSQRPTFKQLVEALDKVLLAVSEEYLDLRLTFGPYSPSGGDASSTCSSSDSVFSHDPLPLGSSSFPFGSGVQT
Assay: KINOMEscan competition binding
Settings: compound 10.0 µM
Attribute Measured: kinase still bound, per cent of control (%)
# value in %; strip the unit string

Guide cases for kinase still bound, per cent of control, answers given:
COc1cc(N2CCN(C)CC2)ccc1Nc1ncc2c(n1)N1CCC[C@H]1CC(=O)N2 ... 17
COc1cc(N2CCC(C)(O)CC2)ccc1Nc1ncc2c(n1)N(C1CCCC1)CCC(=O)N2C ... 34
CN1C(=O)c2ccccc2N(C)c2nc(NS(=O)(=O)c3ccc(N)cc3)ncc21 ... 100
COc1cc(N2CCN(C)CC2)ccc1Nc1ncc2c(n1)N(C)c1ccccc1N(C)C2=O ... 97
COc1cc(N2CCN(C)CC2)ccc1Nc1ncc2c(n1)N(C)c1ccccc1C(=O)N2C ... 5.6

Short answer for `CN1C(=O)c2ccccc2N(C)c2nc(Nc3ccc(N4CCC(O)CC4)cc3)ncc21` : kinase still bound, per cent of control was 73

###

Listed below: kinase still bound, per cent of control values for each entry.
Target: PTK6 (human) (UniProt Q13882)
Sequence (Q13882 whole entry, looked up): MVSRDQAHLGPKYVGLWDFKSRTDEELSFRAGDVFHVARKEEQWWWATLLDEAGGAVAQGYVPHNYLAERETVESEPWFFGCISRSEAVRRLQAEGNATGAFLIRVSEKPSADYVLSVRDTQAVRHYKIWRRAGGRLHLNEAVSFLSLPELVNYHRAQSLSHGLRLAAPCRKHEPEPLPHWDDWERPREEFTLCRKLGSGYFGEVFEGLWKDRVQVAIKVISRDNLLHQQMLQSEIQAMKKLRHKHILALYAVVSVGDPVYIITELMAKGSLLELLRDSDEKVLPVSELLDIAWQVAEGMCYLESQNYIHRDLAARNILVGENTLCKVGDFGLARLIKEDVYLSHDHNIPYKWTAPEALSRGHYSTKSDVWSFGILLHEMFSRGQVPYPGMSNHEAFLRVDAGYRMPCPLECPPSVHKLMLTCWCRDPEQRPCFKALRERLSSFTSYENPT
Assay: KINOMEscan competition binding
Details: compound 10.0 µM
# value in %; strip the unit string

Guide cases for kinase still bound, per cent of control, answers given:
CN1CCN(c2ccc(C(=O)Nc3ncc4c(n3)N(C)c3ccccc3C(=O)N4C)cc2)CC1 ... 100
COc1cc(N2CCC(O)CC2)ccc1Nc1ncc2c(n1)N(C)c1ccccc1C(=O)N2C ... 21
CC(C)Oc1cc(N2CCN(C)CC2)ccc1Nc1ncc2c(n1)N(C)c1ccccc1C(=O)N2 ... 2.6
CN1C(=O)c2ccccc2N(C)c2nc(Nc3ccc(N4CCC(O)CC4)cc3)ncc21 ... 86
COc1cc(N2CCN(C)CC2)ccc1Nc1ncc2c(n1)N(C)c1sccc1C(=O)N2C ... 56

Then this compound:
Short answer for `O=C1NC(=O)/C(=C/c2c[nH]c(=O)c(-c3ccc(N4CCNCC4)nc3)c2)S1` : kinase still bound, per cent of control was 83

###

Target: STK17B (human) (UniProt O94768)
Sequence (O94768 whole entry, looked up): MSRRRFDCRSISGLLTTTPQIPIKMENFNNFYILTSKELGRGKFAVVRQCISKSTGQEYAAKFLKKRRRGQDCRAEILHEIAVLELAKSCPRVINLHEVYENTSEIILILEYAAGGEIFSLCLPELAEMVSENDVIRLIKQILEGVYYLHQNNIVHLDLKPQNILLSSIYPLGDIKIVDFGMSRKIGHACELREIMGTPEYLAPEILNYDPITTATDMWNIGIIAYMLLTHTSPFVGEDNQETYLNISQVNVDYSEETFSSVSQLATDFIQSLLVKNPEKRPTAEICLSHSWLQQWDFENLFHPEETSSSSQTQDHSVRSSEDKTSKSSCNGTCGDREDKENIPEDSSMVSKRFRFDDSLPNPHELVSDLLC
Assay: KINOMEscan competition binding
Settings: compound 10.0 µM
Labelling: kinase still bound, per cent of control reported below 5% becomes 1; at or above becomes 0.

CS(=O)(=O)Nc1ccc(-c2cncc(/C=C3\SC(=N)NC3=O)c2)cc1 ... 0
CN1C(=O)c2ccccc2N(C)c2nc(NS(=O)(=O)c3ccc(N)cc3)ncc21 ... 0
COc1cc(N2CCN(C)CC2)ccc1Nc1ncc2c(n1)Nc1ccccc1NC2=O ... 0
CN1C(=O)[C@H]2CCC[C@H]2N(C2CCCC2)c2nc(Nc3ccc(C(N)=O)cc3)ncc21 ... 1

Below 5% on kinase still bound, per cent of control? Entry `CS(=O)(=O)Nc1ccc(-c2ccc(/C=C3\SC(=N)NC3=O)o2)cc1`
1

Below 5% on kinase still bound, per cent of control? Entry `N=C1NC(=O)/C(=C/c2ccc(-c3csc4ccccc34)o2)S1`
1

###

Target: TNNI3K (human) (UniProt Q59H18)
Sequence (Q59H18 whole entry, looked up): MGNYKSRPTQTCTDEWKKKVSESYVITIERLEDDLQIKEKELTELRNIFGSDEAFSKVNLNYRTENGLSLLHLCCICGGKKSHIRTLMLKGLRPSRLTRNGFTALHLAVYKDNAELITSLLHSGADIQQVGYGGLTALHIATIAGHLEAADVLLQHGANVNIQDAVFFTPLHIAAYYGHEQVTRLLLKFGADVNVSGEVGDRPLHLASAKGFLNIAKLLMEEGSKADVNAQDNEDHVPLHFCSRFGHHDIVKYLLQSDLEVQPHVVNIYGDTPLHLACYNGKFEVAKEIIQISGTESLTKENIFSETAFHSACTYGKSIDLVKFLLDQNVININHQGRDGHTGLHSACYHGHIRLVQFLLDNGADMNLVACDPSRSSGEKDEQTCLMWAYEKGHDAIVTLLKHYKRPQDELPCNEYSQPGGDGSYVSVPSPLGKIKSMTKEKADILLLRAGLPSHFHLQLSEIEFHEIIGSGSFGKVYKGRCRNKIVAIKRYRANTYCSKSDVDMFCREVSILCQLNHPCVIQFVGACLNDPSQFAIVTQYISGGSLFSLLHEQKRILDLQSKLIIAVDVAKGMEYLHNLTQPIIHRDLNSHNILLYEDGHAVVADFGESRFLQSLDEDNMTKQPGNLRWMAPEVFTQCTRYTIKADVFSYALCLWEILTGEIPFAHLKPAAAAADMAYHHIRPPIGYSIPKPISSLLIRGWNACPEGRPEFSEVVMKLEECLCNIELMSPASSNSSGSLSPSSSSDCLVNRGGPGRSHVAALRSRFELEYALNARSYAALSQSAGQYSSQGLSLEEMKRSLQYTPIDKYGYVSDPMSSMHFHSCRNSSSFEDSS
Experiment: KINOMEscan competition binding
Conditions: compound 10.0 µM
Attribute Measured: kinase still bound, per cent of control (%)
# value in %; strip the unit string

Guide cases for kinase still bound, per cent of control, answers given:
COc1cc(N2CCN(C)CC2)ccc1Nc1ncc2c(n1)N(C)c1sccc1C(=O)N2C ... 84
COc1cc(N2CCC(O)CC2)ccc1Nc1ncc2c(n1)N1CCc3cccc(c31)C(=O)N2C ... 100

Then this molecule:
Short answer for `CN1C(=O)c2ccccc2N(C)c2nc(NS(=O)(=O)c3ccc(N)cc3)ncc21` : kinase still bound, per cent of control was 100

###

Biological target: CLK4 (human) (UniProt Q9HAZ1)
Sequence (Q9HAZ1 whole entry, looked up): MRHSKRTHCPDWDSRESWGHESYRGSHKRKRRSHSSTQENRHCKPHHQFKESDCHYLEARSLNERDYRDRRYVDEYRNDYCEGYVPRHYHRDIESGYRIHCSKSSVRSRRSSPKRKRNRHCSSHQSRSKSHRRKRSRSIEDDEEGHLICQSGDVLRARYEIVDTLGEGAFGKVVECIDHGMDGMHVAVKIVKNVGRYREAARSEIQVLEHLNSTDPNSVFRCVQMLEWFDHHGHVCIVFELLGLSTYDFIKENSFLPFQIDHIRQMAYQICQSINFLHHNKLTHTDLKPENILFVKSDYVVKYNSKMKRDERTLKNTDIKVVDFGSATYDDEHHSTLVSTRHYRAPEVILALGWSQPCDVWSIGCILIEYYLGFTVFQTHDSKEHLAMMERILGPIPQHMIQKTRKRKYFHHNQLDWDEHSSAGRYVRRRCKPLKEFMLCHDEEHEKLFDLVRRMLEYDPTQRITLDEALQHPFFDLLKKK
Experiment: KINOMEscan competition binding
Conditions: compound 10.0 µM
Listed below: kinase still bound, per cent of control values for each entry.
# value in %; strip the unit string

N=C1NC(=O)/C(=C/c2c[nH]c(=O)c(-c3ccc4cc[nH]c4c3)c2)S1 ... 30

Short answer for `O=C1NC(=S)S/C1=C\c1ccc(-c2cncc3ccccc23)o1` : kinase still bound, per cent of control was 6.1

Short answer for `CS(=O)(=O)Nc1ccc(-c2cc(/C=C3\SC(=N)NC3=O)c[nH]c2=O)cc1` : kinase still bound, per cent of control was 6

###

Target: SLK (human)
Test: KINOMEscan competition binding
Settings: compound 10.0 µM
Attribute Measured: kinase still bound, per cent of control (%)
# value in %; strip the unit string

Guide cases for kinase still bound, per cent of control, answers given:
CN1C(=O)c2ccccc2N(C)c2nc(Nc3ccc(N4CCC(O)CC4)cc3)ncc21 ... 100
COc1cc(N2CCN(C)CC2)ccc1Nc1ncc2c(n1)N(C1CCCC1)C(C)CC(=O)N2C (stereo unspecified) ... 3.6
CN1C(=O)c2ccccc2N(C)c2nc(NS(=O)(=O)c3ccc(N)cc3)ncc21 ... 100
CN1C(=O)[C@H]2CCC[C@H]2N(C2CCCC2)c2nc(Nc3ccc4ncccc4c3)ncc21 ... 18
COc1cc(N2CCN(C)CC2)ccc1Nc1ncc2c(n1)N(c1ccccc1)CCC(=O)N2 ... 29

Noted kinase still bound, per cent of control for `COc1cc(N2CCC(O)CC2)ccc1Nc1ncc2c(n1)N1CCc3cccc(c31)C(=O)N2C` , tested on SLK (human): 95

###

Target: RPS6KA2 KD2 (human)
Assay: KINOMEscan competition binding
Conditions: compound 10.0 µM
Entries are sorted into classes by kinase still bound, per cent of control as follows: lower band (below 10%), central band (10% to below 20%), upper band (20% or more)

Field: example entries. Status: answers known.
N=C1NC(=O)/C(=C/c2ccc(-c3ccc4c(C(=O)Nc5ccc(N6CCNCC6)cc5)cccc4c3)o2)S1 ... upper band
N=C1NC(=O)/C(=C/c2ccc(-c3ccc(C(=O)Nc4ccc(N5CCNCC5)cc4)cc3O)o2)S1 ... upper band
COc1cc(N2CCC(N3CCN(C)CC3)CC2)ccc1Nc1ncc2c(n1)N1CCCC1CC(=O)N2C (stereo unspecified) ... central band
CC(C)Oc1cc(N2CCC(N(C)C)CC2)ccc1Nc1ncc2c(n1)N1CCC[C@H]1CC(=O)N2C ... lower band
COc1cc(N2CCN(C)CC2)ccc1Nc1ncc2c(n1)N(C1CCCC1)C(C)CC(=O)N2C (stereo unspecified) ... central band
CN1C(=O)c2ccccc2N(C)c2nc(NS(=O)(=O)c3ccc(N)cc3)ncc21 ... upper band
CCOc1cc(N2CCC(O)CC2)ccc1Nc1ncc2c(n1)N(C1CCCC1)CCC(=O)N2CC ... central band
CN1C(=O)c2ccccc2N(C)c2nc(Nc3ccc(N4CCC(O)CC4)cc3)ncc21 ... upper band

Band for `COc1cc(N2CCN(C)CC2)ccc1Nc1ncc2c(n1)N1CCC[C@H]1CC(=O)N2C` ?
lower band

Band for COc1cc(C(=O)NC2CCN(C)CC2)ccc1Nc1ncc2c(n1)N(C1CCCC1)C(C)CC(=O)N2C (stereo unspecified) ?
lower band

Band for `N=C1NC(=O)/C(=C/c2ccc(-c3csc4ccccc34)o2)S1` ?
upper band

Band for `O=C1NC(=O)/C(=C/c2c[nH]c(=O)c(-c3ccc(N4CCNCC4)nc3)c2)S1` ?
lower band

Band for COc1cc(C(=O)NC2CCN(C)CC2)ccc1Nc1ncc2c(n1)N(C1CCCC1)CC(C)C(=O)N2C (stereo unspecified) ?
upper band

Band for `COc1cc(N2CCC(C)(O)CC2)ccc1Nc1ncc2c(n1)N(C1CCCC1)CCC(=O)N2C` ?
upper band

Band for `Nc1cccc(-c2cc(/C=C3\SC(=O)NC3=O)c[nH]c2=O)c1` ?
lower band

Band for `CCN1C(=O)CCN(C2CCCC2)c2nc(Nc3ccc(N4CCC(O)CC4)cc3OC(C)C)ncc21` ?
central band
